Tested on: PPARg:RXRa 30nM:10nM, anti-RXR (NR concentration 30 nM, RXRa partner concentration 10 nM)
Assay: PBM binding z-score (relative to random genomic background probes); higher = stronger binding; sequences stand for … in GC…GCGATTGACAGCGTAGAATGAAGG
Label true when PBM binding z-score >= 3; otherwise false.

// below: answered sequences
[[record]]
item_sequence = "TAGCCTAGGTCATGCGGGCCAATATAGTGTCGGC"
system_name = "PPARg:RXRa 30nM:10nM, anti-RXR (NR concentration 30 nM, RXRa partner concentration 10 nM)"
assigned_label = "false"

[[record]]
item_sequence = "CAAAATAGGTCACCGGAAGGTCAAAGTCCGCATG"
system_name = "PPARg:RXRa 30nM:10nM, anti-RXR (NR concentration 30 nM, RXRa partner concentration 10 nM)"
assigned_label = "true"

[[record]]
item_sequence = "CAAACTAGGTCACCGAAAGGTCAAAGTCCGCATG"
system_name = "PPARg:RXRa 30nM:10nM, anti-RXR (NR concentration 30 nM, RXRa partner concentration 10 nM)"
assigned_label = "true"

[[record]]
item_sequence = "CGAACTACGTCATCCAGGACAGTGAATACATTGA"
system_name = "PPARg:RXRa 30nM:10nM, anti-RXR (NR concentration 30 nM, RXRa partner concentration 10 nM)"
assigned_label = "false"

[[record]]
item_sequence = "CCTTACGGGTAACGAGGTTATAGCACGACGAGCG"
system_name = "PPARg:RXRa 30nM:10nM, anti-RXR (NR concentration 30 nM, RXRa partner concentration 10 nM)"
assigned_label = "false"

[[record]]
item_sequence = "TGTCAATGTTCAAAGGTAACGTAAGTATCCACAC"
system_name = "PPARg:RXRa 30nM:10nM, anti-RXR (NR concentration 30 nM, RXRa partner concentration 10 nM)"
assigned_label = "false"


Request: Does the reported PBM binding z-score for `AGAATGAGGTCATACGTAGATCAGGGAAGAAAGT` fall at or above the 3 mark?
Result: true

Request: Does the reported PBM binding z-score for `TAGCCTAGGGCATTCAGGGGCCAGTATAGAAAGC` fall at or above the 3 mark?
Result: false

Request: Does the reported PBM binding z-score for `CCTGCTAGGTCAAAGGTCAGCTAAAGCAGCTCGC` fall at or above the 3 mark?
Result: true

Request: Does the reported PBM binding z-score for `CGAACTAGGTCGAGGACAGTGAATCTCCGCACGC` fall at or above the 3 mark?
Result: false

Request: Does the reported PBM binding z-score for `CCTCGGAGGACAGAAGGTCAAAGCTGTCCGCTTT` fall at or above the 3 mark?
Result: false

Request: Does the reported PBM binding z-score for `CCTTACGGGTCACTCCAGGTCATAGCATCGGAGT` fall at or above the 3 mark?
Result: false

# credit: the supplement of paper PMC6555819
